Test system: NCI/ADR-RES
ASSAY PROCEDURE: NCI tumour cell line growth inhibition, 48 h
Calls of active or inactive are those of the source. Cut-off read from the data, not from the text of the source: active = GI50 up to about 1.1 µM and inactive = higher.
ATTRIBUTE MEASURED: GI50

// below: answered compounds
1. O=C(Cn1c(C(=O)c2ccccc2)nc2ccccc21)c1ccccc1 :: > 100 µM (inactive)
2. Cc1nc(C(N)=S)sc1C(=O)CC(=O)C(=O)Nc1nc2ccccc2[nH]1 :: > 100 µM (inactive)
3. O[C@H]1[C@H](O)[C@H](O)CN2CCC[C@@H](O)[C@H]12 :: > 100 µM (inactive)

Field request: GI50 | item: CC(=O)Oc1ccc2c(c1)c1c(OC(C)=O)c3ccccc3c(OC(C)=O)c1n2Cc1cccc(C)c1
> 100 µM (inactive)

Another compound to look at: COc1ccc(/C=C/C(=O)Oc2ccccc2OC)cc1
27.8 µM (inactive)

Another compound to look at: O=C1Sc2cc3ccccc3cc2C(=O)Sc2cc3ccccc3cc21
29.1 µM (inactive)

Another compound to look at: O=C(Oc1ccccn1)c1cc2cc(CCl)ccc2oc1=O
27 µM (inactive)

Another compound to look at: CCC1([N+](=O)[O-])CN(N=O)C1
> 100 µM (inactive)

Another compound to look at: C=CCN1C(=O)/C(=C/c2ccccc2)N=C1SC1OC(COC(=O)c2ccccc2)C(OC(=O)c2ccccc2)C1OC(=O)c1ccccc1 (stereo not given)
> 100 µM (inactive)

Another compound to look at: CN(C)CCNCc1ccc2c(-c3ccccc3)nc3cc(Cl)c(Cl)cc3n12
15.8 µM (inactive)

Another compound to look at: O=C(O)C(Cc1ccccc1-c1ccccc1)C(=O)O
> 100 µM (inactive)

Another compound to look at: S=C(Nc1ccc(Cl)cc1)c1ccc(CN2CCCCC2)s1
16.8 µM (inactive)

Another compound to look at: O=C(Cn1c(=O)oc2ccc(C(=O)c3ccc(F)cc3)cc21)c1ccccc1
> 100 µM (inactive)

Another compound to look at: N#Cc1c(N2CCCC2)nsc1Nc1ccccc1
> 100 µM (inactive)

Another compound to look at: C/C=C1/CN2[C@@H](C3=C[C@@H]4[C@@H]5N(C3=O)c3ccccc3[C@@]53CCN5C/C(=C/C)[C@@H]4C[C@H]53)C[C@@]34c5ccccc5N5C(=O)CC=C([C@H]1C[C@H]23)[C@H]54
8.81 µM (inactive)

---

System: HOP-92
ASSAY PROCEDURE: NCI tumour cell line growth inhibition, 48 h
Active and inactive are the calls of the source. Cut-off read from the data, not from the text of the source: active = GI50 up to about 1.1 µM and inactive = higher.
Measured GI50 accompanies every entry in the list below.

1. C=CCN1C(=O)/C(=C/c2ccccc2)N=C1SC1OC(COC(=O)c2ccccc2)C(OC(=O)c2ccccc2)C1OC(=O)c1ccccc1 (configuration not stated) :: 60.5 µM (inactive)
2. COC(=O)[C@]12CCC(C)[C@H](C)[C@H]1C1=CCC3[C@@]4(C)CC[C@H](OC(C)=O)C(C)(C)C4CC[C@@]3(C)C1(C)C(O)C2 (some centres not stated) :: > 100 µM (inactive)
3. CCOC(=O)c1ccc(-c2cc(C)[nH]n2)[nH]1 :: > 100 µM (inactive)
4. Cn1cnc([N+](=O)[O-])c1Sc1nc(N)nc2c1ncn2Cc1ccccc1 :: 12 µM (inactive)
5. CC1=CC2=C(C=O)C(=O)[C@](C)(O)[C@@H](O)C2=CO1 :: > 65.5 µM (inactive)
6. Cc1cccc(C)c1NC(=O)C1C(=O)N(c2c(C)cccc2C)C(=O)/C1=N\N (configuration not stated) :: > 100 µM (inactive)

Shift focus to the following entry.
Field request: GI50 | item: N/C(=N\Nc1ccc(Cl)cc1)c1cnccn1
> 100 µM (inactive)

---

Measured GI50 accompanies every entry in the list below.
Tested on: NCI-H23
ASSAY PROCEDURE: NCI tumour cell line growth inhibition, 48 h
The source made the active and inactive calls. No stated cut-off is given here; in the data, active = GI50 up to about 1.1 µM and inactive = higher.

1. COC1(C)Cc2c(c(C)c(O)c3c2C(=O)C=C(Cl)C3=O)O1 (configuration not stated) :: 66.8 µM (inactive)
2. NC(=S)N/N=C1/C(=O)N(c2ccc(Cl)cc2Cl)C(=O)C(=O)C1c1nc2ccccc2s1 (configuration not stated) :: > 100 µM (inactive)
3. COc1cc(CCc2ccc(N)cc2)cc(OC)c1OC :: 92.3 µM (inactive)

Shift focus to the following entry.
Find the measured GI50: item O=c1c2ccccc2c(=O)c2c1c1[nH]c3ccccc3c1c1c(=O)c3ccccc3c(=O)c21 , target or system NCI-H23.
> 100 µM (inactive)

---

Test system: SF-268
ASSAY PROCEDURE: NCI tumour cell line growth inhibition, 48 h
Calls of active or inactive are those of the source. Rule as the data show it: active = GI50 up to about 1.1 µM and inactive = higher.
Bench note: report the call from active, inactive

Use the examples below as a reference point.
1. N#Cc1c(N2CCCC2)nsc1Nc1ccccc1 :: inactive
2. O=C1CC(NCc2ccccc2)c2c(Cl)sc(Cl)c21 (stereo not given) :: inactive
3. CC(=O)Oc1ccc2c(c1)c1c(OC(C)=O)c3ccccc3c(OC(C)=O)c1n2Cc1cccc(C)c1 :: inactive
4. COc1ccc(C(=O)N(Cc2cccnc2)C(=S)N(Cc2cccnc2)C(=O)c2ccc(OC)cc2)cc1 :: inactive
5. CCCC/C=C1/CCC(CN(C)C)C1=O (stereo not given) :: inactive
6. O=c1nc(N2CCN(c3ccccc3)CC2)ccn1C1OC(CO)C(O)C1O (stereo not given) :: inactive

Look up the recorded call for Cc1ccc(Nc2sc(C)cc2C#N)c([N+](=O)[O-])c1 in this test.
inactive

Another molecule to look at: CN1C(=O)C(C)(C)C2(SC(C)(C)C2(C)C)N(C)C1=S (stereo not given)
inactive

Another molecule to look at: C/C(=N\NC(N)=S)c1cc(C)c(C)cc1C
inactive

Another molecule to look at: CC(=O)Nc1c(C(=N)C#N)ncn1CCO
inactive

Another molecule to look at: N#C/C(=C\c1ccc(O)c(O)c1)C(N)=O
inactive

Another molecule to look at: Cc1cc2nc(C=C(C(F)(F)F)C(F)(F)F)oc2cc1C
inactive

Another molecule to look at: N=C(c1ccccc1)N(c1ccccc1)c1ccccc1
inactive

Another molecule to look at: O=C1NC(=O)C2C1c1[nH]c3ccccc3c1C1CCCC12 (stereo not given)
inactive

Another molecule to look at: N=C(N)Nc1nc2cc([N+](=O)[O-])ccc2[nH]1
inactive

Another molecule to look at: COc1ccc(C(=O)N2CCN(c3ccc4[nH]c(=O)oc4c3)CC2)cc1
inactive

Another molecule to look at: CCCCCNC(=O)CCCCCCCCCCCNC(=O)CCCCCCCCCCN1C=CC(=CC=C2C=CC(=O)C=C2)C=C1
inactive

Another molecule to look at: CN(C(=O)C12C3C4C1C1C2C3C41I)C(C)(C)C (stereo not given)
inactive

Another molecule to look at: CCOC(=O)c1c(-c2ccc(Cl)cc2)c(C#N)c(=S)n(C2OC(COC(C)=O)C(OC(C)=O)C(OC(C)=O)C2OC(C)=O)c1C (stereo not given)
inactive

Another molecule to look at: COC(=O)C1(C(=O)OC)CC2=C(S(=O)(=O)c3ccccc3)C[C@H](C#N)[C@H]2C1
inactive

Another molecule to look at: O=C(CSCC(=O)N/N=C\c1cccc(Br)c1)N/N=C\c1cccc(Br)c1
inactive

Another molecule to look at: C/C(O)=C/C(=O)c1[nH]c(C(=O)O)cc1C1CCN(Cc2ccccc2)C1=O (stereo not given)
inactive

Another molecule to look at: O=C(O)Cn1cnc2c(O)nc(Nc3ccccc3)nc21
inactive

Another molecule to look at: O=S(=O)(O)c1cc(S(=O)(=O)O)c2c(/N=N/c3ccc(S(=O)(=O)O)c4ccccc34)c(O)ccc2c1
inactive

Another molecule to look at: S=C(Nc1ccc2c(c1)Cc1ccccc1-2)Nc1ccc2c(c1)Cc1ccccc1-2
inactive

---

System: NCI/ADR-RES
ASSAY PROCEDURE: NCI tumour cell line growth inhibition, 48 h
Active and inactive are the calls of the source. Cut-off read from the data, not from the text of the source: active = GI50 up to about 1.1 µM and inactive = higher.
Bench note: report the call from Yes = active, No = inactive

Use the examples below as a reference point.
1. CCS(=O)(=O)c1c2cc(OC)ccc2nc2ccc(OC)cc12 :: No
2. O=c1c2cc3c(=O)n4c(cc(-c5ccccc5)c5cc(Cl)ccc54)nc3cc2nc2cc(-c3ccccc3)c3cc(Cl)ccc3n12 :: No
3. N/C(=N\Nc1ccc(Cl)cc1)c1cnccn1 :: No
4. NCCSS(=O)(=O)CCN :: No
5. COc1cc2c(c(OC)c1OC)-c1ccc(SC)c(=O)cc1[C@@H](OC(C)=O)CC2 :: Yes

Look up the recorded call for Clc1ccc(OCC2NC3C=CC32)cn1 (configuration not stated) in this test.
No

Another compound to look at: CCOC(=O)c1ccc(-c2cc(C)[nH]n2)[nH]1
No

---

Tested on: HCT-116
ASSAY PROCEDURE: NCI tumour cell line growth inhibition, 48 h
Calls of active or inactive are those of the source. No stated cut-off is given here; in the data, active = GI50 up to about 1.1 µM and inactive = higher.
ATTRIBUTE MEASURED: GI50

// below: answered compounds
1) COC(=N)C(C)C :: > 100 µM (inactive)
2) C=C(C)COC(=O)COCC(=O)OCC(=C)C :: > 100 µM (inactive)
3) COc1ccc(OC)c2nc3c(C(=O)NCCN(C)C)cccc3nc12 :: 1.79 µM (inactive)
4) CCOC(=O)C(Cc1ccc(OC(=O)OC(C)(C)C)cc1)NC(=O)OC(C)(C)C (configuration not stated) :: 78 µM (inactive)
5) CC1(C)O[C@H](C(=O)O)[C@@H](C(=O)O)O1 :: > 100 µM (inactive)
6) Cc1ccccc1NC(=O)c1ccc([N+](=O)[O-])cc1 :: > 100 µM (inactive)
7) Cc1cc(N(CCC#N)CCC#N)ccc1/C=C(\NC(=O)/C=C/c1ccccc1)C(=O)NN :: 99.1 µM (inactive)
8) Nc1nc(N)c2nnn(C[C@H]3CC[C@@H](CO)C3)c2n1 :: > 100 µM (inactive)

Field request: GI50 | item: CN(C)c1cc2ccccc2oc1=O
> 100 µM (inactive)

Another compound to look at: O=C1C[C@H]2CCCN2[C@@H](c2ccccc2)C1
> 100 µM (inactive)

Another compound to look at: Cc1ccc(S(=O)(=O)N2CC2CCCCC=O)cc1 (configuration not stated)
57 µM (inactive)

Another compound to look at: O=C(CSCC(=O)N/N=C\c1cccc(Br)c1)N/N=C\c1cccc(Br)c1
14.8 µM (inactive)
